Molecular target: T1, mouse TIGIT expressed on cells (mouse, UniProt P86176 29-249)
T1 construct: whole, on cells; on Jurkat cells engineered to express mouse TIGIT; also called mTIGIT; Jurkat-mTIGIT
T1 sequence (looked up): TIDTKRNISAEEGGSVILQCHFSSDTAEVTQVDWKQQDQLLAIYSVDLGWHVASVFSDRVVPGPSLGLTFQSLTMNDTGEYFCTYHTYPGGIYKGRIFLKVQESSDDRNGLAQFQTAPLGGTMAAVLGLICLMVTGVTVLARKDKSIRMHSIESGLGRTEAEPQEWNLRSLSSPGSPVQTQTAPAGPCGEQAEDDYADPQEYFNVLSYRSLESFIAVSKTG
Experiment: flow cytometry, 100 nM Ab, Jurkat-mTIGIT vs untransfected
Give FON (Fold Over Negative) for every item shown.
Your answer should be a plain number; it is taken to be in fold.

Entry anti-TIGIT antibody clone 29499 (IgG) (antibody, V domains shown) VH: QLQLQESGPGLVKPSETLSLTCTVSGGSISSSRYYWAWIRQPPGKGLEWIGSIGTSGSTYYNPSLKSRVTISVDTSKNQFSLKLSSVTATDTAVYYCAIEGANFRDFGYVAFDIWGQGTMVTVSS VL: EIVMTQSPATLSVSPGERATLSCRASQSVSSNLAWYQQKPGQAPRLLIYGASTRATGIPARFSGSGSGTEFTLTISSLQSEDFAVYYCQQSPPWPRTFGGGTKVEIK : reported FON (Fold Over Negative) = ?
541

Then what about the binder anti-TIGIT antibody clone 29494 (IgG) (antibody, V domains shown) VH: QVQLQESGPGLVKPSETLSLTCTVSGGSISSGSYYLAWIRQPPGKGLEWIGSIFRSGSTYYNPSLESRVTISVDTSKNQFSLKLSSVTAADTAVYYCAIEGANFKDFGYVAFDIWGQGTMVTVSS VL: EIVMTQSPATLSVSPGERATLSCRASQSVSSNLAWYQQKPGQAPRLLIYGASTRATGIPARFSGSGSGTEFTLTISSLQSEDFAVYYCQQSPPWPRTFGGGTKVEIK ?
511

Then what about the binder anti-TIGIT antibody clone 26493 (IgG) (antibody, V domains shown, parent clone; also called surrogate anti-TIGIT antagonistic antibody) VH: EVQLVESGGGLVQPGRSLRLSCAASGFTFGDYAMHWVRQAPGKGLEWVSGITWNSGSIGYADSVKGRFTISRDNAKNSLYLQMNSLRAEDTALYYCAKPVPKSRGLDVWGQGTMVTVSS VL: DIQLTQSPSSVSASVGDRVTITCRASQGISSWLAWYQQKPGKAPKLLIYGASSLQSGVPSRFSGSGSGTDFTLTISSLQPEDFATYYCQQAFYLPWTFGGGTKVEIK ?
463
